- Test system: SF-539
- Protocol: NCI tumour cell line growth inhibition, 48 h
Activity calls are given as the source filed them. Cut-off read from the data, not from the text of the source: active = GI50 up to about 1.1 µM and inactive = higher.
Measurement Label: GI50

CC(C)C(/C=C/c1ccc(Cl)c(Cl)c1)=N\NC(=O)N/N=C(/C=C/c1ccc(Cl)c(Cl)c1)C(C)C : > 100 µM (inactive)
COc1ccc2nc3ccc(OC)cc3c([S+]([O-])Cc3ccccc3)c2c1 (configuration not stated) : 7.73 µM (inactive)
O=Nc1c(-c2cccc([N+](=O)[O-])c2)nc2cnccn12 : 20.3 µM (inactive)
C/C(=C\COP(=O)(O)OP(=O)(O)O)CC/C=C(\C)CNc1c(F)c(F)c(F)c(F)c1F : 97.1 µM (inactive)
CC(=O)Oc1ccc2c(c1)c1c(OC(C)=O)c3ccccc3c(OC(C)=O)c1n2Cc1cccc(C)c1 : 25.1 µM (inactive)

Given the molecule CC(C)(C)[C@H]1CO[C@]2(c3ccccc3)[C@@H]3C[C@@H]3C(=O)N12 , what is its reported GI50? > 100 µM (inactive)

Also, COc1cc(NC(C)=O)ccc1C(=O)N/N=C/c1ccc(Cl)cc1Cl please. 87.7 µM (inactive)

Also, CC(=O)OCC1OC(OC2C(COC(C)=O)OC(Sc3ccccc3C)C(OC(C)=O)C2OC(C)=O)C(OC(C)=O)C(OC(C)=O)C1OC(C)=O (configuration not stated) please. > 100 µM (inactive)

Also, C=C(C)[C@H]1C2=CC(C)=C(O2)[C@@H](O)[C@H](C(=C)C)CCC2=C[C@H]1OC2=O [KALLOLIDE A] please. > 100 µM (inactive)

Also, CN(C)/C=C/C(=CC=[N+](C)C)/C=C/N(C)C.[O-][Cl+3]([O-])([O-])[O-] please. > 100 µM (inactive)

Also, CSC(=Nc1nnc(-c2ccc([N+](=O)[O-])cc2)s1)SC please. 18.1 µM (inactive)

Also, COC(=O)C(C(=O)Cc1ccccc1[N+](=O)[O-])C(=O)OC please. > 100 µM (inactive)

# credit: ChEMBL document CHEMBL1201862
